Measured values drawn from patent US8754071B2 for this set.

measurementTarget: c-kit (Homo sapiens)
Construct: human Mo7e cells which endogenously express c-kit; endogenous in cells; host or cells: human Mo7e cells (promegakaryocytic leukemia line), stimulated with human recombinant SCF
Sequence (P10721 26-976): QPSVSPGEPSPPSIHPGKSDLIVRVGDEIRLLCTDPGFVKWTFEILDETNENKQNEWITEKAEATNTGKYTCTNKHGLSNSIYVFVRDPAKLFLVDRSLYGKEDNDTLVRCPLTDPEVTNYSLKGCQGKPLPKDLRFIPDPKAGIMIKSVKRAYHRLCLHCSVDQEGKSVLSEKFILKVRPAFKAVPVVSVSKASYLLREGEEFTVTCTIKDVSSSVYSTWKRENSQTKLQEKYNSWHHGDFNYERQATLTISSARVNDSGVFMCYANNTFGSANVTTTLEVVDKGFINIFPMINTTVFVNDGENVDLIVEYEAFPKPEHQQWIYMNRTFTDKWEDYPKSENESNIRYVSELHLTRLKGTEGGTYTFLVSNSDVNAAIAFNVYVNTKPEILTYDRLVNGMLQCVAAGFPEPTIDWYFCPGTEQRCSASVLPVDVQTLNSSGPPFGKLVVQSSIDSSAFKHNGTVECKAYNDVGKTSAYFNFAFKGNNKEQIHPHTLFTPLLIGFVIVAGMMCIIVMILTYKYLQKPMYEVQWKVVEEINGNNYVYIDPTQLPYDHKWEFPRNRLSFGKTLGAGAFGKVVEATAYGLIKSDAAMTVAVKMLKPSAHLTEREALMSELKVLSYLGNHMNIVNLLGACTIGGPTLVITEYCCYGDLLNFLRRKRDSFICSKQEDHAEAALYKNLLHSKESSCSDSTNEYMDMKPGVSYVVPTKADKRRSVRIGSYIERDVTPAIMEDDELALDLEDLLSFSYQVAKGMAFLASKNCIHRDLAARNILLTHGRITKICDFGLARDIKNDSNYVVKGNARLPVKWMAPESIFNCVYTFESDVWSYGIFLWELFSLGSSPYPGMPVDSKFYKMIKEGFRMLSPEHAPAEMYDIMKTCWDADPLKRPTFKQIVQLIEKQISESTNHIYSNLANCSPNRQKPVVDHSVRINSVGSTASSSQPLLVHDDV
assayRemarks: Mo7e cell proliferation assay (SCF dependent proliferation)
Format: cell-based
protocolConditions: Table 2; human Mo7e cells stimulated with SCF, 48 hours, CellTiter Glo; 1% FBS; read-out: c-kit (Mo7e)
pIC50: −log10 of the molar value.
# pIC50 annotations
quantityMeasured: pIC50

chemicalstructure=Cc1ccc(-c2noc(C[C@@H]3CCCN3)n2)cc1NC(=O)c1cnc2ccccn12 measurementtarget="c-kit (Homo sapiens)" quantitymeasured=pIC50 modifier== experimentalresult=6.28
chemicalstructure=COC(=O)N1CCC[C@H](c2nc(-c3ccc(C)c(NC(=O)c4cnc5ccccn45)c3)no2)C1 measurementtarget="c-kit (Homo sapiens)" quantitymeasured=pIC50 modifier== experimentalresult=6.87
chemicalstructure=COC(=O)N1CC(c2nc(-c3ccc(C)c(NC(=O)c4cnc5ccc(CCC(=O)O)cn45)c3)no2)C1 measurementtarget="c-kit (Homo sapiens)" quantitymeasured=pIC50 modifier=< experimentalresult=5.00
chemicalstructure=Cc1ccc(-c2noc([C@@H]3CC(F)(F)CN3)n2)cc1NC(=O)c1cnc2ccccn12 measurementtarget="c-kit (Homo sapiens)" quantitymeasured=pIC50 modifier== experimentalresult=6.69
chemicalstructure=Cn1cc(S(=O)(=O)N2CC(c3nc(-c4ccc(F)c(NC(=O)c5cnc6ccccn56)c4)no3)C2)cn1 measurementtarget="c-kit (Homo sapiens)" quantitymeasured=pIC50 modifier== experimentalresult=6.07
chemicalstructure=COC(=O)N1CC(c2nc(-c3ccc(C)c(NC(=O)c4cnc5ccc(C(C)(C)O)cn45)c3)no2)C1 measurementtarget="c-kit (Homo sapiens)" quantitymeasured=pIC50 modifier== experimentalresult=6.50
chemicalstructure=COC(=O)N1CCC[C@@H]1c1nc(-c2ccc(C)c(NC(=O)c3cnc4ccccn34)c2)no1 measurementtarget="c-kit (Homo sapiens)" quantitymeasured=pIC50 modifier== experimentalresult=6.77
chemicalstructure=Cc1ccc(-c2noc([C@@H]3COCCN3)n2)cc1NC(=O)c1cnc2ccccn12 measurementtarget="c-kit (Homo sapiens)" quantitymeasured=pIC50 modifier== experimentalresult=5.91
